The measurements presented in this section are drawn from ChEMBL document CHEMBL6096660.

Assay: Volume of distribution at steady state in Sprague-Dawley rat at 1 mg/kg, iv measured for 24 hrs by HPLC/MS analysis
Type: ADME, organism-based
Details: in vivo, read-out: Vdss
Recorded Vd, one value per entry.
Endpoint label: Vd (L/kg)

- CC1(N)CCN(c2cnc(-c3cccc(Cl)c3Cl)c(N)n2)CC1: 7.88
- CN(c1cnc(Sc2cccc(Cl)c2Cl)c(N)n1)C1CCNCC1: 15

----------
Experiment: Tmax in Sprague-Dawley rat at 10 mg/kg, po measured for 24 hrs by HPLC/MS analysis
Assay type: ADME, organism-based
Conditions: in vivo
Endpoint label: Tmax (h)

* CN(c1cnc(Sc2cccc(Cl)c2Cl)c(N)n1)C1CCNCC1 | 6
* CC1(N)CCN(c2cnc(-c3cccc(Cl)c3Cl)c(N)n2)CC1 | 8

----------
Experiment: Lipophilicity, logP of compound
Assay type: physicochemical
Settings: octanol/water; read-out: logP
Endpoint label: logP

• CN(c1cnc(Sc2cccc(Cl)c2Cl)c(N)n1)C1CCNCC1 = 1.47

----------
Assay: Half life in Sprague-Dawley rat at 10 mg/kg, po measured for 24 hrs by HPLC/MS analysis
Format: ADME, organism-based
Conditions: in vivo
Endpoint label: half-life (h)

- CN(c1cnc(Sc2cccc(Cl)c2Cl)c(N)n1)C1CCNCC1: 10.6

----------
Experiment: AUC in Sprague-Dawley rat at 1 mg/kg, iv measured for 24 hrs by HPLC/MS analysis
Type: ADME, organism-based
Conditions: in vivo
Endpoint label: AUC at 24 h (ng·h/mL)

• CC1(N)CCN(c2cnc(-c3cccc(Cl)c3Cl)c(N)n2)CC1 = 1000
• CN(c1cnc(Sc2cccc(Cl)c2Cl)c(N)n1)C1CCNCC1 = 706

----------
Experiment: Tmax in Sprague-Dawley rat at 1 mg/kg, iv measured for 24 hrs by HPLC/MS analysis
Type: ADME, organism-based
Details: in vivo
Endpoint label: Tmax (min)

- CC1(N)CCN(c2cnc(-c3cccc(Cl)c3Cl)c(N)n2)CC1: 4.8
- CN(c1cnc(Sc2cccc(Cl)c2Cl)c(N)n1)C1CCNCC1: 4.98

----------
Assay: Cmax in Sprague-Dawley rat at 1 mg/kg, iv measured for 24 hrs by HPLC/MS analysis
Format: ADME, organism-based
Settings: in vivo
Endpoint label: Cmax (ng/mL)

• CC1(N)CCN(c2cnc(-c3cccc(Cl)c3Cl)c(N)n2)CC1 = 178
• CN(c1cnc(Sc2cccc(Cl)c2Cl)c(N)n1)C1CCNCC1 = 185

----------
Assay: Half life in Sprague-Dawley rat at 1 mg/kg, iv measured for 24 hrs by HPLC/MS analysis
Format: ADME, organism-based
Conditions: in vivo
Recorded half-life, one value per entry.
Endpoint label: half-life (h)

* CN(c1cnc(Sc2cccc(Cl)c2Cl)c(N)n1)C1CCNCC1 | 10.3
* CC1(N)CCN(c2cnc(-c3cccc(Cl)c3Cl)c(N)n2)CC1 | 7.1

----------
Recorded bioavailability, one value per entry.
Experiment: Oral bioavailability in Sprague-Dawley rat at 10 mg/kg measured for 24 hrs by HPLC/MS analysis
Type: ADME, organism-based
Conditions: in vivo
Endpoint label: bioavailability (%)

• CN(c1cnc(Sc2cccc(Cl)c2Cl)c(N)n1)C1CCNCC1 = 54
• CC1(N)CCN(c2cnc(-c3cccc(Cl)c3Cl)c(N)n2)CC1 = 113
